# reported TP; entries follow
Species on record: Rattus norvegicus
TEST_SUMMARY: Open TG-GATES - Regimen: Single
Type: toxicity, organism-based, Sprague-Dawley
Design: regimen Single, gender Male, age 6 weeks
SETUP_CONDITIONS: in vivo, po, 1000 mg/kg, 3 h, tissue Plasma, route gavage, dose level High
Express your answer in g/dL, writing the number without its unit.

O=C(O)c1cc(/N=N/c2ccc(S(=O)(=O)Nc3ccccn3)cc2)ccc1O [SULFASALAZINE] ... 5.6
CCc1cc(C(N)=S)ccn1 [ETHIONAMIDE] ... 5.7
Clc1ccccc1CN1CCc2sccc2C1 [TICLOPIDINE] ... 5.5
C[C@H](CS)C(=O)N1CCC[C@H]1C(=O)O [CAPTOPRIL] ... 5.5

Next item in the queue.
Q: Using known records, supply TP for O=C(O)c1cn(C2CC2)c2cc(N3CCNCC3)c(F)cc2c1=O [CIPROFLOXACIN]
Result: 5.6

---

Species: Rattus norvegicus
TEST_SUMMARY: Open TG-GATES - Regimen: Single
Assay type: toxicity, organism-based, Sprague-Dawley
Set-up: regimen Single, gender Male, age 6 weeks
SETUP_CONDITIONS: in vivo, po, 0 mg/kg, 9 h, tissue Blood, route gavage, dose level Control
REPORTED_ENDPOINT: MCH (pg)
Number in pg, nothing else.

Recorded results for 5 compounds are shown here.
Clc1ccccc1CN1CCc2sccc2C1 ... 21.5
CC(=O)Oc1ccccc1C(=O)O ... 22.2
CCc1cc(C(N)=S)ccn1 [ETHIONAMIDE] ... 21.8
CN(C)CCC=C1c2ccccc2CCc2ccccc21 ... 20.9
NC(=O)N/N=C/c1ccc([N+](=O)[O-])o1 ... 21.6

Q: Annotate the compound `O=C(O)c1cn(C2CC2)c2cc(N3CCNCC3)c(F)cc2c1=O` with its measured MCH.
Result: 21.7

Q: Tell us which MCH value is on record for `O=C(O)c1cc(/N=N/c2ccc(S(=O)(=O)Nc3ccccn3)cc2)ccc1O`
Result: 21.5

---

Species: Rattus norvegicus
TEST_SUMMARY: Open TG-GATES - Regimen: Single
Format: toxicity, organism-based, Sprague-Dawley
Design: regimen Single, gender Male, age 6 weeks
SETUP_CONDITIONS: in vivo, po, 0 mg/kg, 6 h, tissue Plasma, route gavage, dose level Control
Is BUN at least 10 mg/dL? Then met. If not, not met.

For orientation, consider the following solved cases.
O=C(O)c1cc(/N=N/c2ccc(S(=O)(=O)Nc3ccccn3)cc2)ccc1O ... met
NC(=O)N/N=C/c1ccc([N+](=O)[O-])o1 ... not met
C[C@H](CS)C(=O)N1CCC[C@H]1C(=O)O ... met

Q: Could you please find out whether CSc1ccc2c(c1)N(CCC1CCCCN1C)c1ccccc1S2 (stereo unspecified) has BUN that meets 10 mg/dL or exceeds it?
Result: met

---

Species on record: Rattus norvegicus
TEST_SUMMARY: Open TG-GATES - Regimen: Single
Format: toxicity, organism-based, Sprague-Dawley
Design: regimen Single, gender Male, age 6 weeks
SETUP_CONDITIONS: in vivo, po, 0 mg/kg, 9 h, tissue Plasma, route gavage, dose level Control
Quick list: LDH per entry.

These recorded examples may help you get a feel for the data.
COc1ccc(Cc2nccc3cc(OC)c(OC)cc23)cc1OC ... 169 IU/L
CN(C)CCC=C1c2ccccc2CCc2ccccc21 ... 60.4 IU/L
NC(=O)N1c2ccccc2C=Cc2ccccc21 [CARBAMAZEPINE] ... 170.4 IU/L
O=C(O)c1cc(/N=N/c2ccc(S(=O)(=O)Nc3ccccn3)cc2)ccc1O ... 194.2 IU/L
CC(=O)Oc1ccccc1C(=O)O ... 205.6 IU/L

Attention now shifts to the item below.
Q: Identify LDH associated with the compound `Clc1ccccc1CN1CCc2sccc2C1`
Result: 128.4 IU/L
